Values were extracted from patent US20190152962A1.

- System: secreted IL-17 in peripheral blood mononuclear cells (PBMCs)
- procedureDetails: Human IL-17 inhibition assay
- Type: cell-based
- conditionInfo: PBMC, anti-CD3/anti-CD28, 72 h, read-out: IL17 IC50
Hi! Just check whether IC50 is below 20 nM. Below gives y, equal or above gives n.

inputSmiles: CCS(=O)(=O)c1ccc(CC(=O)Nc2cc(Cl)c(C3(c4noc(-c5ccc(OC)nc5)n4)CC3)c(Cl)c2)cc1
target: secreted IL-17 in peripheral blood mononuclear cells (PBMCs)
group: y
--
inputSmiles: CCS(=O)(=O)c1cnc(CC(=O)Nc2cc(Cl)c(C3(c4nc5ccc(F)cc5o4)CC3)c(Cl)c2)cn1
target: secreted IL-17 in peripheral blood mononuclear cells (PBMCs)
group: n
--
inputSmiles: CCS(=O)(=O)c1ccc(CC(=O)Nc2cc(Cl)c(C3(c4noc(-c5ccc(C#N)cc5)n4)CC3)c(Cl)c2)cn1
target: secreted IL-17 in peripheral blood mononuclear cells (PBMCs)
group: n
--
inputSmiles: CCS(=O)(=O)c1ccc(CC(=O)Nc2cc(Cl)c(C3(c4noc(-c5ccc(C#N)cc5)n4)CC3)c(Cl)c2)cc1
target: secreted IL-17 in peripheral blood mononuclear cells (PBMCs)
group: y
--
inputSmiles: CCS(=O)(=O)c1ccc(CC(=O)Nc2cc(Cl)c(C3(c4nnc(-c5ccc(F)cc5)o4)CC3)c(Cl)c2)cc1
target: secreted IL-17 in peripheral blood mononuclear cells (PBMCs)
group: n
--
inputSmiles: CCS(=O)(=O)c1ccc(CC(=O)Nc2cc(Cl)c(C3(c4noc(-c5ccc(Cl)c(Cl)c5)n4)CC3)c(Cl)c2)nc1
target: secreted IL-17 in peripheral blood mononuclear cells (PBMCs)
group: n
--
inputSmiles: CCS(=O)(=O)c1ccc(CC(=O)Nc2cc(Cl)c(C3(c4ncc(-c5ccc(Cl)cc5)o4)CC3)c(Cl)c2)cc1
target: secreted IL-17 in peripheral blood mononuclear cells (PBMCs)
group: n
--
inputSmiles: CCS(=O)(=O)c1ccc(CC(=O)Nc2cc(Cl)c(C3(c4noc(-c5ccc(F)c(F)c5)n4)CC3)c(Cl)c2)cc1
target: secreted IL-17 in peripheral blood mononuclear cells (PBMCs)
group: y
--
inputSmiles: CCS(=O)(=O)c1ccc(CC(=O)Nc2cc(Cl)c(C3(c4noc(-c5ccc(Cl)cc5Cl)n4)CC3)c(Cl)c2)nc1
target: secreted IL-17 in peripheral blood mononuclear cells (PBMCs)
group: y
--
inputSmiles: CCS(=O)(=O)c1ccc(CC(=O)Nc2cc(Cl)c(C3(c4noc(-c5ccc(Cl)cc5)n4)CC3)c(Cl)c2)nc1
target: secreted IL-17 in peripheral blood mononuclear cells (PBMCs)
group: n
--
inputSmiles: CCS(=O)(=O)c1ccc(CC(=O)Nc2cc(Cl)c(C3(c4ncc(-c5ccc(F)cc5)o4)CC3)c(Cl)c2)cc1
target: secreted IL-17 in peripheral blood mononuclear cells (PBMCs)
group: n
--
inputSmiles: CCS(=O)(=O)c1ccc(CC(=O)Nc2cc(Cl)c(C3(c4noc(-c5c(F)cc(F)cc5F)n4)CC3)c(Cl)c2)cc1
target: secreted IL-17 in peripheral blood mononuclear cells (PBMCs)
group: y

###

pIC50 overview
- target: full length human RORγt (Homo sapiens, UniProt P51449)
- Construct: full length human RORγt together in COS-7 cells
- Sequence (P51449 1-497 isoform P51449-2): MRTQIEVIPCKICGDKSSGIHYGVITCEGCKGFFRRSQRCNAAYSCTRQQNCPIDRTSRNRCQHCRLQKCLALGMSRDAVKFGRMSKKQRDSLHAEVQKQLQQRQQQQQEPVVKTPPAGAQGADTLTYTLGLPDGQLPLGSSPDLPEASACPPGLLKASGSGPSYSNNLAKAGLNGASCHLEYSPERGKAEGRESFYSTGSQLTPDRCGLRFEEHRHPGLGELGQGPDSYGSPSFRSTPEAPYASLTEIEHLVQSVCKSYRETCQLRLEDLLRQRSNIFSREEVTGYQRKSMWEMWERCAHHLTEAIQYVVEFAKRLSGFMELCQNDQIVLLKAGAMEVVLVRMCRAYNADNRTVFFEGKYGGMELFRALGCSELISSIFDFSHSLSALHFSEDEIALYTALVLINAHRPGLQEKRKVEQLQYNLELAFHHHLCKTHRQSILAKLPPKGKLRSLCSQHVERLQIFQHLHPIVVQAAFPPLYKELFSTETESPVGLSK
- procedureDetails: 5×RORE based luciferase assay
- conditionInfo: COS-7 cells transfected with 5×RORE-Luc and hRORγt, 18-20 h treatment
pIC50: −log10 of the molar value.

molecule: CCS(=O)(=O)c1ccc(CC(=O)Nc2cc(Cl)c(C3(c4noc(-c5ccc(Cl)cc5Cl)n4)CC3)c(Cl)c2)nc1 [Example 49]
pIC50: 8.33
//
molecule: CCS(=O)(=O)c1ccc(CC(=O)Nc2cc(Cl)c(C3(c4noc(-c5ccc(C)s5)n4)CC3)c(Cl)c2)cc1 [Example 18]
pIC50: 8.41
//
molecule: CCS(=O)(=O)c1ccc(CC(=O)Nc2cc(Cl)c(C3(c4noc(-c5ccc(Cl)cc5)n4)CC3)c(Cl)c2)nc1 [Example 50]
pIC50: 7.84
//
molecule: CCS(=O)(=O)c1ccc(CC(=O)Nc2cc(Cl)c(C3(c4noc(-c5ccc(Cl)s5)n4)CC3)c(Cl)c2)cc1 [Example 17]
pIC50: 8.72
//
molecule: CCS(=O)(=O)c1ccc(CC(=O)Nc2cc(F)c(C3(c4noc(-c5ccc(C#N)cc5)n4)CC3)c(Cl)c2)cc1 [Example 32]
pIC50: 8.22
//
molecule: O=C(Cc1ccc(S(=O)(=O)NC2CC2)cc1)Nc1cc(Cl)c(C2(c3noc(-c4ccc(C(F)(F)F)cc4)n3)CC2)c(Cl)c1 [Example 64]
pIC50: 7.80
//
molecule: CCS(=O)(=O)c1ccc(CC(=O)Nc2cc(Cl)c(C3(c4nc5ccc(F)cc5o4)CC3)c(Cl)c2)nc1 [Example 58]
pIC50: 8.47
//
molecule: CCS(=O)(=O)c1ccc(CC(=O)Nc2cc(Cl)c(C3(c4noc(C(C)C)n4)CC3)c(Cl)c2)cc1 [Example 23]
pIC50: 8.85
//
molecule: CCS(=O)(=O)c1ccc(CC(=O)Nc2cc(Cl)c(C3(c4noc(-c5ccc(C#N)cc5)n4)CC3)c(Cl)c2)cn1 [Example 73]
pIC50: 7.75
//
molecule: O=C(Cc1ccc(S(=O)(=O)NC2CC2)cc1)Nc1cc(Cl)c(C2(c3noc(-c4ccc(F)cc4)n3)CC2)c(Cl)c1 [Example 63]
pIC50: 7.96
//
molecule: CCS(=O)(=O)c1ccc(CC(=O)Nc2cc(Cl)c(C3(c4noc(-c5ccc(Cl)c(Cl)c5)n4)CC3)c(Cl)c2)cn1 [Example 71]
pIC50: 7.80
//
molecule: CCS(=O)(=O)c1ccc(CC(=O)Nc2cc(Cl)c(C3(c4noc(-c5cccc(F)c5)n4)CC3)c(Cl)c2)cc1 [Example 6]
pIC50: 8.47
//
molecule: CCS(=O)(=O)c1ccc(CC(=O)Nc2cc(Cl)c(C3(c4nc5ccc(F)cc5o4)CC3)c(Cl)c2)cn1 [Example 74]
pIC50: 7.62
//
molecule: CCS(=O)(=O)c1ccc(CC(=O)Nc2cc(Cl)c(C3(c4noc(-c5ccc(Cl)cc5)n4)CC3)c(Cl)c2)cn1 [Example 72]
pIC50: 7.70
//
molecule: CCS(=O)(=O)c1cnc(CC(=O)Nc2cc(Cl)c(C3(c4nc5ccc(F)cc5o4)CC3)c(Cl)c2)cn1 [Example 78]
pIC50: 8.10
